Source: patent US20120101095A1

Target sequence: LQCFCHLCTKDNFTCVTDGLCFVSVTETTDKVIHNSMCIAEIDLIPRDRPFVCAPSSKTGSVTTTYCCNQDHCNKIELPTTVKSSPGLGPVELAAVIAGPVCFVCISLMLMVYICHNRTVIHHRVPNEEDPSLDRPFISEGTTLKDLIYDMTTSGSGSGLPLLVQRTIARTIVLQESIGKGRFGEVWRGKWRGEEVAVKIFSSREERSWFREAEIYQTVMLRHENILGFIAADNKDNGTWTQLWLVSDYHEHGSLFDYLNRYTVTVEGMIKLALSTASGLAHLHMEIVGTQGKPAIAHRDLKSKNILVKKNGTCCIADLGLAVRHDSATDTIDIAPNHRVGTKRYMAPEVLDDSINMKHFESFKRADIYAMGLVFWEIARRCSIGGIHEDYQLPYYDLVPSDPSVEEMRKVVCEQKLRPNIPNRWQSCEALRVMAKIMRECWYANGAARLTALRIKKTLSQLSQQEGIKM
// reported IC50 per item

Look over these answered cases.
INSERT INTO measurements (smiles_input, experimental_readout, value_observed) VALUES
  ('NC(=O)c1sc2nc(OC[C@@H]3CCC(=O)N3)nc(-c3cccc(Cl)c3)c2c1N', 'IC50', '100 to 500 nM'),
  ('NC(=O)c1sc2nc(OCCN3CCNC3=O)nc(-c3cccc(Cl)c3)c2c1N', 'IC50', '100 to 500 nM'),
  ('NC(=O)c1sc2nc(OC[C@H]3C[C@@H]3CO)nc(-c3cccc(Cl)c3)c2c1N', 'IC50', '< 100 nM'),
  ('NC(=O)c1sc2nc(OCCN3CCCC3=O)nc(-c3cccc(Cl)c3)c2c1N', 'IC50', '< 100 nM'),
  ('Cc1cccc(-c2nc(OCc3cn(C)cn3)nc3sc(C(N)=O)c(N)c23)n1', 'IC50', '< 100 nM');

Incoming: What measured IC50 goes with NC(=O)c1sc2nc(OCC3CC3)nc(-c3cc4ccccc4s3)c2c1N ?
Outgoing: > 1000 nM

Incoming: Looking for the measured IC50 of C=C(C)CCOc1nc(-c2cccc(C(F)(F)F)c2)c2c(N)c(C(N)=O)sc2n1 , can you help?
Outgoing: 100 to 500 nM

Incoming: Any idea what IC50 was measured for Cc1ccc(-c2nc(OCCN3CCOCC3)nc3sc(C(N)=O)c(N)c23)o1 ?
Outgoing: > 1000 nM

Incoming: Name the recorded IC50 for Cc1ccc(-c2nc(OCCO)nc3sc(C(N)=O)c(N)c23)o1 .
Outgoing: 100 to 500 nM
